B1: scFv; the commonest letter at each place (parent)
chain 1: EVKLDETGGGLVQPGRPMKLSCVASGFTFSDYWMNWVRQSPEKGLEWVAQIRNKPYNYETYYSDSVKGRFTISRDDSKSSVYLQMNNLRVEDMGIYYCTGSYYGMDYWGQGTSVTVS
chain 2: DVVMTQTPLSLPVSLGDQASISCRSSQSLVHSNGNTYLRWYLQKPGQSPKVLIYKVSNRFSGVPDRFSGSGSGTDFTLKISRVEAEDLGVYFCSQSTHVPWTFGGGTKLEIK

Variants of: B1
Assay: yeast surface expression (ratio to wild type); higher = more expressed
Conditions: format: scFv 4-4-20, heavy + light
Quantity name: yeast surface expression
Quick one: just the number, no unit, thanks!

[[record]]
mutation_key = "chain 1 Y103P D106M"
reported_result = 0.742


[Q] # return recorded yeast surface expression for entry chain 1 G104W
[A] 0.587

[Q] Answer with reported yeast surface expression of chain 1 Y32Q M34G V37K
[A] 1.04
